tested on: BT-549 breast; test: NCI-60 one-dose screen, 48 h (100 = growth as untreated, 0 = no growth, -100 = all killed); details: 10 µM
About 83,000 compounds went through this panel and 20% of them were active in at least one assay; those are over-represented in the sample as a whole.
Give growth for every item shown.
Give the quantity in %, number only.

Problem: Give its growth value. Item: CCCCC/C=C/C(=O)CCc1ccc(O)c(OC)c1
Result: 66.9

Problem: Give its growth value. Item: CC1=C(N2CCOCC2)C(N2CCOCC2)=C(C)C(=O)C1=O
Result: 110

Problem: Give its growth value. Item: COc1ccc2c(c1)C(=O)c1c-2c(OCCN(C)C)nc2ccccc12
Result: 85.4

---

Give growth for every item shown.
System: SF-539 CNS
Experiment: NCI-60 one-dose screen, 48 h (100 = growth as untreated, 0 = no growth, -100 = all killed)
Conditions: 10 µM
Description: Cells are grown in 96 well plates and exposed to the test compound for 48 hours. Compounds are tested at a single concentration, which is 10^-5 M for most compounds. The reported endpoint is percent growth (GI% or GIPRCNT), where numbers from 0 - 100% represent growth inhibition, and numbers from -100% - 0 represent cell death. For example, a value of 40 represents 60% growth inhibition. A value of 0 means no net growth occurred over the course of the experiment. […]
This is part of a sample that, as a whole, favours compounds with a hit. Of some 83,000 tested, about 20% had one in any assay.
Give the quantity in %, number only.

Problem: Please provide the recorded growth for CC(C)C[C@H](NC(=O)[C@H](Cc1cccc2ccccc12)NS(=O)(=O)c1cccc2cccnc12)B(O)O , tested on SF-539 CNS.
Result: -34.1

Problem: Please provide the recorded growth for CCN(CC)CCSCCCNc1c2ccc(Cl)cc2nc2ccc(OC)cc12 , tested on SF-539 CNS.
Result: -75.2

Problem: Please provide the recorded growth for CC(=O)c1cc(Cl)ccc1O , tested on SF-539 CNS.
Result: 89.1

---

test system: NCI-H322M lung; assay: NCI-60 one-dose screen, 48 h; conditions: 10 µM
About 83,000 compounds went through this panel and 20% of them were active in at least one assay; those are over-represented in the sample as a whole. The source made the active and inactive calls. The calls were made as follows: active = growth percent below 10; inactive = the rest.
Select the correct class. Options are 1.0 for active, 0.0 for inactive and nothing else.

Problem: Query: recorded result category for N#Cc1cccc(OCc2nc(N)nc(N)c2-c2ccc(Cl)c(Cl)c2)c1 in this test
Result: 0.0

Problem: Query: recorded result category for Cc1ccc(NC(=O)CSc2nc3ccccc3c(=O)n2CCc2ccccc2)c(C(=O)O)c1 in this test
Result: 0.0

Problem: Query: recorded result category for CCN1CCCC1CNC(=O)c1ncc(-c2ccc(C(F)(F)F)cc2)c(NC2CCCCCC2)n1 (centres undefined) in this test
Result: 0.0

Problem: Query: recorded result category for COc1cc(Cl)cc(-c2nn(-c3cccc(NC(=O)c4ccc(N5CCOCC5)c(C(F)(F)F)c4)c3)cc2-c2ccncc2)c1 in this test
Result: 0.0

Problem: Query: recorded result category for COc1ccc2c(c1)C(=O)c1c-2c(OCCN(C)C)nc2ccccc12 in this test
Result: 1.0

Problem: Query: recorded result category for COc1ccc(N=C2C(=Nc3ccc(OC)cc3)N(c3ccc(N(C)C)cc3)C(=S)N2c2ccc(OC)cc2)cc1 in this test
Result: 0.0

Problem: Query: recorded result category for COc1ccc2c(c1)O/C(=C\c1ccc([N+](=O)[O-])s1)C2=O in this test
Result: 0.0

Problem: Query: recorded result category for COc1ccc(Cn2c(C(N)=O)cc3c2-c2nc(N)ncc2CCC3)cc1 in this test
Result: 0.0

Problem: Query: recorded result category for COc1ccc(-c2nn(-c3cccc(NC(=O)c4ccc(N5CCOCC5)c(C(F)(F)F)c4)c3)cc2-c2ccncc2)cc1Cl in this test
Result: 0.0

Problem: Query: recorded result category for Cc1cc(C)c(CCc2cc(C)c(C)cc2C)cc1C in this test
Result: 0.0

Problem: Query: recorded result category for CC/C(=C(/c1ccc(OCCN(C)C)cc1)c1ccc(OC(=O)CCC(=O)c2c(C)[nH]c(/C=C3\N=C(c4ccc[nH]4)C=C3OC)c2C)cc1)c1ccccc1 in this test
Result: 0.0

Problem: Query: recorded result category for O=C(Nc1cccc(-n2cc(-c3ccncc3)c(-c3ccc(O)c(Cl)c3)n2)c1)c1ccc(Cl)c(Cl)c1 in this test
Result: 0.0

Problem: Query: recorded result category for COc1ccc2c(c1)O/C(=C\c1ncc([N+](=O)[O-])n1C)C2=O in this test
Result: 1.0

Problem: Query: recorded result category for O=S(=O)(NCCCNc1nccc(-c2c(-c3ccc(F)cc3)nc3sccn23)n1)c1ccc(F)cc1 in this test
Result: 0.0

---

system: NCI-H23 lung; experiment: NCI-60 one-dose screen, 48 h (100 = growth as untreated, 0 = no growth, -100 = all killed); conditions: 10 µM
About 83,000 compounds went through this panel and 20% of them were active in at least one assay; those are over-represented in the sample as a whole.
Categories are assigned from the measured growth using these intervals: category 1 (below 40%), category 2 (40% to below 90%), category 3 (90% or more)

Problem: Place this compound in its band: COc1ccc(-c2nn(-c3cccc(NC(=O)c4ccc(N5CCOCC5)c(C(F)(F)F)c4)c3)cc2-c2ccncc2)cc1Cl
Result: category 2

Problem: Place this compound in its band: N=c1nc(N)ncn1-c1ccccc1
Result: category 3

Problem: Place this compound in its band: c1ccc(CNc2ncnc3scc(-c4cccs4)c23)nc1
Result: category 2

Problem: Place this compound in its band: O=C(Nc1cccc(-n2cc(-c3ccncc3)c(-c3ccc(O)c(Cl)c3)n2)c1)c1ccc(N2CCOCC2)c(C(F)(F)F)c1
Result: category 2

Problem: Place this compound in its band: CS(=O)(=O)Nc1ccc(Nc2c3ccccc3nc3cc(N)ccc23)cc1
Result: category 1

Problem: Place this compound in its band: Cc1c(Cl)cccc1NC(=O)c1sc2nc3c(cc2c1N)C(=O)CCC3
Result: category 1

Problem: Place this compound in its band: CCCCCCCCCCCCCC[n+]1ccc(C(N)=O)cc1
Result: category 1

Problem: Place this compound in its band: Cc1ccc(C(=O)Nc2cccc(F)c2)cc1NC(=O)C1(c2ncnc3[nH]ccc23)CC1
Result: category 2

Problem: Place this compound in its band: COc1ccc(-c2nn(-c3cccc(NC(=O)c4ccc(Cl)c(Cl)c4)c3)cc2-c2ccncc2)cc1Cl
Result: category 3

Problem: Place this compound in its band: Cc1nc2ccc(CN(C)c3ccc(C(=O)N[C@@H](CCC(=O)O)C(=O)O)s3)cc2c(=O)[nH]1
Result: category 2

Problem: Place this compound in its band: CSCCCNC(=O)c1ccc2c(c1)/C(=C/c1[nH]c(C)cc1C)C(=O)N2
Result: category 1

Problem: Place this compound in its band: CN(Cc1ccccc1)Cc1ccc([N+](=O)[O-])cc1I
Result: category 3

Problem: Place this compound in its band: COc1cc(NC(=O)CCSc2nc3ccc(Cl)cc3c(=O)n2Cc2ccccc2)cc(OC)c1OC
Result: category 3

Problem: Place this compound in its band: O=C(O)c1ccc(P(=O)(O)O)c([N+](=O)[O-])c1
Result: category 3

Problem: Place this compound in its band: CN(C)c1ccc(N=C2C=CC(=O)c3ccccc32)cc1
Result: category 1

Problem: Place this compound in its band: COc1cc(CNCCCCCCN2C(=O)c3cccc4cccc(c34)C2=O)ccc1O
Result: category 2

Problem: Place this compound in its band: COc1ccc(NC(=O)Cc2nc3nc4sc(C)c(C)c4c(=O)n3[nH]2)cc1
Result: category 3

Problem: Place this compound in its band: COc1ccc2c(c1)C(=O)c1c-2c(OCCN2CCCCC2)nc2ccc(OC)cc12
Result: category 1

Problem: Place this compound in its band: CSc1nc(=O)n(Cc2ccc(Cl)cc2)c(=O)[nH]1
Result: category 3

Problem: Place this compound in its band: COc1cc(-c2cc(/C=C/C(=O)c3ccc(N)cc3)[nH]n2)cc(OC)c1OC
Result: category 1

Problem: Place this compound in its band: O=C(CNC(=O)OCc1ccccc1)NCC(=O)Oc1ccc([N+](=O)[O-])cc1
Result: category 3

Problem: Place this compound in its band: C(CCCC1=NCCO1)CCCC1=NCCO1
Result: category 3

Problem: Place this compound in its band: CCCCCCN(CCCCCC)CC(O)c1ccc2c3c(cccc13)CC2 (configuration not stated)
Result: category 1

Problem: Place this compound in its band: c1ccc2c(-c3nc(N4CCOCC4)c4c5c(sc4n3)CCCCCC5)cccc2c1
Result: category 3

---

test system: ACHN renal; experiment: NCI-60 one-dose screen, 48 h (100 = growth as untreated, 0 = no growth, -100 = all killed); conditions: 10 µM
Compounds without any hit were thinned out: in the full panel of roughly 83,000, 20% have a hit.
Readout kind: growth (%)
Give the quantity in %, number only.

Problem: Please provide the recorded growth for COc1ccc(-c2nn(-c3cccc(NC(=O)c4cccc(C(F)(F)F)c4)c3)cc2-c2ccncc2)cc1Cl , tested on ACHN renal.
Result: 36.8

Problem: Please provide the recorded growth for COc1cc(/C(=C2/O[C@@H]([C@H]3COC(C)(C)O3)[C@H]3OC(C)(C)O[C@@H]23)c2ccc3ccccc3c2)cc(OC)c1OC , tested on ACHN renal.
Result: 0.857

Problem: Please provide the recorded growth for Cc1ccc(S(=O)(=O)Oc2ccc3c4c(c(=O)oc3c2)CCCCC4)cc1 , tested on ACHN renal.
Result: 78.7

Problem: Please provide the recorded growth for COc1ccc(-c2nn(-c3cccc(NC(=O)Nc4cc(C(F)(F)F)cc(C(F)(F)F)c4)c3)cc2-c2ccncc2)cc1Cl , tested on ACHN renal.
Result: 11

Problem: Please provide the recorded growth for COc1ccc(Nc2cc(C)nc(NCCCNc3ccnc4cc(Cl)ccc34)n2)cc1 , tested on ACHN renal.
Result: -93

Problem: Please provide the recorded growth for Cc1ccc(CC#N)cc1C , tested on ACHN renal.
Result: 94.6

Problem: Please provide the recorded growth for COc1cc(-c2cc(C(=O)N3CCN(C(=O)c4ccccc4NCc4cccs4)CC3)nc3cc(-c4ccccc4)nn23)cc(OC)c1OC , tested on ACHN renal.
Result: 73.9
